- runDescription: soluble fraction after stress (log2 fold change); higher = more stays soluble; pooled small domains, quantitative proteomics
- testContext: stress: pH 4
Can you tell me soluble fraction (log2) for the items I'm about to list?
Numbers only.

Consider the reported soluble fraction (log2) for these sequences:
1. HMAFAQMAQEAAKGKDDFNDLRQEMEAVIKEQPHILLMAQFGQNPYEIAYQEAKRRKAQDQQQQQ ... -0.805
2. HMDLQAAWLQTVRHLLAHTEDVGDRFAEEARRIHYGEEPHRGIRGQATPEERLALREEGIETMSIPV ... -0.204

Please state soluble fraction (log2) for every sequence in the list that follows.
1. HMPSLGGLLALLKRNRKPDAMEALDRLISKEDRPETAEALENIREKVRNMQMREAEGLLLALMEP
2. HMLGARSLNEAVARNLPQILAKYQLIHIAGKNGFNPELQGRGYVQYEYVDTELKDLMALADIVVSR
3. HMIAWNFDTMKESLSEMERVDYQEFIKAFLSLELSISDRTILNQVYQDYMDEDDLSLISDELRV

## Result
1. -0.281
2. -0.0512
3. -1.4

----------
Assign soluble fraction (log2) to each entry below.
- runDescription: soluble fraction after stress (log2 fold change); higher = more stays soluble; pooled small domains, quantitative proteomics
- testContext: stress: pH 4
One number for each entry.

1. HMNILKAPMPGLILDVIVKESDLVKKGDPVIILEAMKMENILSSPVDGIVKEIKVNPQQTVEKNNTLIKFE ... -0.469
2. HMILNPQELGERIRKLRLKRNKTQSYFADMLYISSSYLALIESGKRVPNLDLLIHIAKFTDVTLDYLVFG ... -0.573
3. HMDLPSSETLKVKLNLAKAYVTIEDFGAARRALDEVLSVSSLVDPDLTIQAKSLLAEIDQRS ... -0.0976

For every item below, please supply its soluble fraction (log2).
1. HMEPEWVINTDGSNLNEILAIDEVDSRKTFSNDLQEVYRTFGIEAARQILVQEIDAVIESSGA
2. HMGNEVMYRQDLSEQELLSFIKKYTGQDEVTHIVVGAPKQRDNTPSPVETKITPFVVQLKAQFPDVNVV
3. HMNTPTLLLYGGKDHSVPEAGIRHLRAHLSANDRGEYRFYPNAPHLLLQSRQWQQVSQDISQWLAMT
4. HMIRQGTKQALLIEMLQRPEGASITEIVEATSWQAHTARGAISGALKKKLGLPITSEKHPERGTVYKL
5. HMAMDSGELEAIVDRLISEHPDDWAALTAGDDRERKKKSGFFVGEVMKATRGQADGRAVIELLASRSA

## Result
-0.675
-0.217
0.0454
-0.55
-0.605

----------
Please go through the items and note down their soluble fraction (log2).
- runDescription: soluble fraction after stress (log2 fold change); higher = more stays soluble; pooled small domains, quantitative proteomics
- testContext: stress: pH 4
Numbers only.

Worked set:
1) HMKSLLTARQLEVFEIARNKGYWTTPRKISLVELSKLLDISKSTLSVLLHSIEGKVMEEFYEEIRQ ... 0.0209
2) HMPTNVYSIIGKEGIVLESIDNLNSTGKVKVNGELWSAISDSNIEKGETIKVLSVNGVKLKVEKVN ... -0.0569

## Task Need soluble fraction (log2), item HMGNYRVIKWGMQGDDVKLMQQMLINRGYVLSATGKYASRTLKAIMAFQEANGLKADGIVGKRTWNKLL
## Result -0.134

----------
- runDescription: soluble fraction after stress (log2 fold change); higher = more stays soluble; pooled small domains, quantitative proteomics
- testContext: stress: pH 4
measuredMetric: soluble fraction (log2)
Numbers only.

# per-item lookup of soluble fraction (log2); items listed below
1. HMEGIWAVFYDGKPINLKSSSLVANYPGPKYKKVSFSNPGHAENLAKKLNAQHNTDKFGVYLLKSGDKFS
2. HMLKIVRSREEVESRLYTIYGNVKGRRLYNFYLSLIIDGLDIVKARTSKNVYYTNIRNLKNAGIDFSQKIN
3. HMETKQYIVEAQDEGTRLDVYLTKELGQSRSYVQSLVKEGHVQVNGKTGKSNLKLSSSSEILVTIPEVQ
4. HMAGTKRAENIEIQKLTEVLEARLDSVGFFWPDHKAESMIMTLRNMISRLPLTEADVRVFHGIIKSLADK
5. HMFEATGKITGTEVSFRRKPTTDSERILFFDINTEFRVIGINNGWYKGVYQGKTGYVRSDFVEIVGG

## Result
0.219
-0.0641
0.0538
-0.727
-0.448

----------
- runDescription: soluble fraction after stress (log2 fold change); higher = more stays soluble; pooled small domains, quantitative proteomics
- testContext: stress: pH 4
Assignment: determine reported soluble fraction (log2) for the given sequences.
Answers are plain numbers.

Below, 4 sequences whose answers are already recorded.
1) HMEMDPKELGRQVLAKRKEKGWSQEQLGKMAEISRNYVSQIERGEADSISIKIINRLAIALGVSPSDLGE ... 0.21
2) HMYTTHTQSELNEAARFNGRATYQKGIYYNESKKEHFKVVNGKYQALPNVKQVNGDSWIDKTGITHKG ... 0.202
3) HMDVLIQEIGKRLRIQRLAMGLTQEELAKRAGISLSTLKLMEQQGKGSLQRLAKVAVVLDLDGDLRGLF ... -1.01
4) HMEIDMQEGIKTIILMMKEHNITPSEAMKIYKSANGDIHYISKIYNHFKNKGADNFVALMIKMVKPGEFIE ... -0.398

Hello, I would appreciate it if you could give soluble fraction (log2) for each entry below.
1. HMNADAIIGRMGKVTEPITPDGYGRVEIDGDSWKATAVGGVAIAEGTRVSVVSLDSIIITVKTV
2. HMYYIITNGKYWVIENPIRPGEYMESTKSSNAKQFTFKQAKNLLNARSKKLGWIRNGYSMVGED

## Result
1. -0.117
2. 0.427

I'm hoping you can list soluble fraction (log2) for every sequence here, please.
1. HMDSVTVPDISGYSPKAAEDSINNAGLKINEQGLSGSGDGQVVERTSPSAGSKVKKGDSVTVYYSKA
2. HMINEEELLKIENIKRKYPDSKAALMPVLYFFQEKYGFISDDSIKEISQLLNISEVDIKGVVSFYEMFHEK
3. HMEKTKLPNLVDFTYRQAEALLQTHGLKVGKVERVPDVGQTVIKAKYKGKVISWGTELNKGEKIDLVIGKG
4. HMAFKNGLLQTSKKVTLVRKVDGVTMRFDSLRAASVFLGRNKGYLSNVIKNGRTLDNYEIVVGE
5. HMINLDGIGEKISRLRKEQGVTIRELSEYTGYSVGFLSNLETGKNSPTVESLQRVAEALRTDIIEILTK
6. HMKPVSEMDNMEWVREQYFQNMIYEIGEWVKDKKTGIVGEIVKRGTNYVTIVQEDFSLHKIWLEDLETTE

## Result
1: 0.104; 2: -1.04; 3: 0.13; 4: 0.0346; 5: -0.754; 6: -0.368

----------
Hi there, I'd appreciate the recorded soluble fraction (log2) for every entry that follows.
- runDescription: soluble fraction after stress (log2 fold change); higher = more stays soluble; pooled small domains, quantitative proteomics
- testContext: stress: pH 4
Answers are plain numbers.

In the examples that follow, each entry is paired with its recorded soluble fraction (log2).
1. HMKTITVEDEQAGKRLDKALAELFPHYSRSALEKLIKEGQVLVNKSFVKSKYSLKLGDEISLQFEQL ... 0.0205
2. HMKNLTERQQRIIALISENPQTTRAEIAGAIGVATKTIERELTTLSNIVYYVGPKKGGHWEIIK ... 0.333
3. HMQEDSNISFVKIHVDADSGMAHKKLSKLSLPTGFLIVVIIRGEENIIPNGETEVLPGDLLVAAAREFEN ... -0.811
4. HMNERLKQLRLSLNLNQEEFGKWLGISKSGVSDIESGRRKVTEQHIIMLSNHNISEKWLRTGEGEMFV ... 0.0158
5. HMKSIETVAELVAELKKLNPNAKISNIDGTYTLEEDINTITLPKDFKYDNNLGINNKIDDFTPYISLDVKA ... -0.132

Batch: soluble fraction (log2) for all items listed.
1. HMLIDQYPYSIIYRLIPHGRSNAVPAAQIVGLTKLDERSIRIYVEAMRREGHIIASSSKGYYFPASIEE
2. HMDPSKMKIDELEIATRTATALADGGIKSVAGLIRKSASALKELDGVGDKAIAEITEALEKLGLELKG
3. HMGTTTPPATRKGKVTSSFLNVRSGPSTANAKVAELKQNAVVTIYETSSNGWHRIGVNQWVIGTNIQE
4. HMNFTEAEQRFHFLEDQRQRGVLSLEQYRAELAQLRVTDAWGRLWMLQEQTGQWFVFHEGQWRPSQ

## Result
-0.589
-0.157
-0.121
-0.266

----------
- runDescription: soluble fraction after stress (log2 fold change); higher = more stays soluble; pooled small domains, quantitative proteomics
- testContext: stress: pH 4
measuredMetric: soluble fraction (log2)
Numbers only.

Below are worked cases with known answers.
1. HMNDMWADITINANGKATLVVHTHEIKYLGLTGHLGKMEINGTAKEPVKDSSGDVVDYYFTFTDLDASMF ... -0.623
2. HMGDAVYSKVKDLVNTYNALAKQTGKSDLVSISQSRTWMVNDTKAHEVQWNKIGITIEDDQTLTI ... -0.13

## Task Name the recorded soluble fraction (log2) for HMNLQAYQSVLDKLNEEYGTTFRFPTEEELHEVGLTNTVDPRTATVSATEFEKYMRPIAERISQANL .
## Result -0.315
